# Tested on: Escherichia coli ATCC 25922
# ASSAY_SUMMARY: Antimicrobial assay I, modified protocol (tryptic soy broth), MBC
# MEASUREMENT_CONDITIONS: minimum bactericidal concentration, Table 4
No end group written: not given here.
REPORTED_ENDPOINT: MBC E. coli A.25922

FAKLFAKLAKKFAL-NH2 [compound 121]	INACT
FAFGKGIGKVGKKLL-NH2 [compound 133]	INACT
FAKIIAKIAKIAKKIL-NH2 [compound 139]	INACT
FALKALKK-NH2 [compound 145]	INACT
FALALKA-NH2 [compound 141]	INACT

Incoming: Look up MBC E. coli A.25922 of FAKLFAKAFKKAL-NH2 [compound 117] and report it.
Outgoing: INACT

Incoming: Look up MBC E. coli A.25922 of FAKKALKALKKL-NH2 [compound 47] and report it.
Outgoing: >50 µg/mL

Incoming: Look up MBC E. coli A.25922 of FALALKALKKLLKKLKKLAKKAL-NH2 [compound 24] and report it.
Outgoing: >80 µg/mL

Incoming: Look up MBC E. coli A.25922 of FAFGKGIGKIGKKGL-NH2 [compound 138] and report it.
Outgoing: INACT

Incoming: Look up MBC E. coli A.25922 of FAKLLALALKLKL-NH2 [compound 94] and report it.
Outgoing: >50 µg/mL
